meta.source: patent US20240084017A1

# EXPERIMENTAL TARGET: human Mac-1 (integrin αMβ2, CD11b/CD18) (human, UniProt P11215 17-1152; P05107 23-769)
# PROTOCOL DETAILS: flow cytometry, HEK293/Mac-1 cells, PBS (Mock), 10 µg/ml of this antibody; binding of reporter mAb KIM127 read
# Method: The HEK293/Mac-1 cells (clone1-4) were counted and washed twice with staining buffer (PBS containing 1% FBS, and 0.1% sodium azide). […] After washing with the staining buffer, the cells were analyzed by flow cytometry. […] After washing with the staining buffer, the cells were analyzed by flow cytometry. TABLE III The anti-Mac-1 antibodies can serve as agonist to enhance the conformational change of Mac-1. […] Binding of KIM127 or m24 was detected using flow cytometry.
# maps each entry to its KIM127 (Expression relative to IgG4)

[
  {
    "BINDER": "anti-Mac-1 antibody clone m2396 (antibody, human IgG4, V domains shown) VH: QVQLQESGPGLVKPSETLSLTCTVSGFSLTSNSISWVRQPPGKGLEWMGAIWSGGGTDYNPSLKSRLTISRDTSKSQVFLKMSSLTAADTAIYFCTRGGYPYYFDYWGQGVLVTVSS VL: DIVMTQSPDSLAVSLGERVTINCKSSQSLLYSENQENYLAWYQQKPGQSPKLLIYWASTRQSGVPDRFSGSGSGTDFTLTISSVQAEDLAIYYCQQYYDTPLTFGGGTKLEIK",
    "KIM127 (Expression relative to IgG4)": "1.09 relative to IgG4"
  },
  {
    "BINDER": "anti-Mac-1 antibody clone 27G04 (antibody, human IgG4, V domains shown) VH: QVKLQESGPELVKPGASVKISCKASGYSFTDYNMNWVKQSNGKSLEWIGVINPNYGTTSYNQKFKGKATLTVDQSSSTAYMQLNSLTSEDSAVYYCARTFDYDDDAFAYWGQGTTVTVSS VL: DIELTQSPAIMSASPGEKVTITCSASSSVSDMHWYQQKSGTSPKRWIYDTSKLASGVPARFSGSGSGTSYSLTISNMEAEDAATYYCQQWSSNPPTFGAGTKLELK",
    "KIM127 (Expression relative to IgG4)": "1.11 relative to IgG4"
  }
]
